measured_on: CYP3A4 (Homo sapiens)
Sequence (P08684 whole entry): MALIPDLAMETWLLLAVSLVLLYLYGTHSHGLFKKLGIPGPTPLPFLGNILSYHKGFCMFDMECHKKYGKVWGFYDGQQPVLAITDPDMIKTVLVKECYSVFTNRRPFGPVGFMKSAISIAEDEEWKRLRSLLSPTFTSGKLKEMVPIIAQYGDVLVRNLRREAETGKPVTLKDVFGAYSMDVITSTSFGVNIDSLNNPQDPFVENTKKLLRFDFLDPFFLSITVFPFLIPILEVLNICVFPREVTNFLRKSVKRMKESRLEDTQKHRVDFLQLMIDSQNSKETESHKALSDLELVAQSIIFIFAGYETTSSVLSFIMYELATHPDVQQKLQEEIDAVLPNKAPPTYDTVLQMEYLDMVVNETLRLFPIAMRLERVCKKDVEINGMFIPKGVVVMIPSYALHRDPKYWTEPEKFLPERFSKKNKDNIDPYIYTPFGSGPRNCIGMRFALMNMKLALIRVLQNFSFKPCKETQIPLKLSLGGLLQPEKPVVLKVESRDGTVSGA
procedure_summary: Fluorometric CYP inhibition assay, BFC debenzylation
Type: in vitro ADME
condition_description: human, recombinant enzyme
value_type: IC50 (µM)
// return numeric value only (unit: µM, not printed)

Qu. Which IC50 is reported for this compound? CC(C)(O)CCCC1(C)CC(=O)c2cc(O)c(Br)cc2O1 (stereo not shown) [PBQ1, 7-Hydroxycymopochromanone]
Ans. 5.07

###

pIC50 by entry:
measured_on: CYP1B1 (Homo sapiens)
Sequence (Q16678 1-543): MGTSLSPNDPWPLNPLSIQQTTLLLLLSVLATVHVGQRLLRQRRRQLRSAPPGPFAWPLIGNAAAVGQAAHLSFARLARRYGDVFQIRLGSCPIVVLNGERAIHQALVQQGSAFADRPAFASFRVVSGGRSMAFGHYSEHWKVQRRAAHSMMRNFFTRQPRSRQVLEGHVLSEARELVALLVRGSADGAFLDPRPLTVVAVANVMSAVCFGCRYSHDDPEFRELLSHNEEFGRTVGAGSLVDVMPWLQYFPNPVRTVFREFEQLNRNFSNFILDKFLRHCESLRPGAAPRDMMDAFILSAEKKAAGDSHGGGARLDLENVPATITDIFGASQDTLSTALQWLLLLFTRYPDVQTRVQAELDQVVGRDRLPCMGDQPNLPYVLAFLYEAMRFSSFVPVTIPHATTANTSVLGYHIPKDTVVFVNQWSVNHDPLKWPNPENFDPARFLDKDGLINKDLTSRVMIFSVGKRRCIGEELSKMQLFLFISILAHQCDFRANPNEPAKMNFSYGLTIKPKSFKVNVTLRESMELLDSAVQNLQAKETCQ
procedure_summary: Fluorometric CYP inhibition assay, ERes dealkylation
Type: biochemical
condition_description: recombinant CYP1B1, ERes 0.37 μM; read-out: IC50 CYP1B1
// pIC50: -log10(molar conc.)

[[record]]
compound = "C/C(=C\\C(=O)c1cc(O)c(Br)cc1O)CCCC(C)(C)O [PBQ2, 7-hydroxycymopolone]"
endpoint_result = 6.85


Next, consider the following compound.
Qu. Param item = CC(=O)N1CCN(c2ccc(OCC3COC(Cn4ccnc4)(c4ccc(Cl)cc4Cl)O3)cc2)CC1 (centres unmarked) [ketoconazole, reference compound] ; retrieve measured pIC50.
Ans. 5.20
